B1: Homeobox protein cut-like 1, residues 548 to 629; numbered along this chain, P39880 (parent)
chain: GEEMDTAEIARQVKEQLIKHNIGQRIFGHYVLGLSQGSVSEILARPKPWNKLTVRGKEPFHKMKQFLSDEQNILALRSIQGR

Variants of: B1
MEASUREMENT DESCRIPTION: abundance fitness (aPCA) (normalised: wild type 0, dead -1); higher = more abundant; growth selection in yeast, the domain comes from the species named
ASSAY CONDITIONS: Homo sapiens
RECORDED METRIC: abundance fitness
Give the figure by itself; no unit, no explanation.

Name the recorded abundance fitness for L43I . -0.534

Endpoint output: abundance fitness of E3P . Value? -0.137

Tell me the measured abundance fitness of I26D , please. 0.023

So what's the measured abundance fitness for this one? Q24A -0.129

If you can, please state the reported abundance fitness value of K51H . -0.075

// abundance fitness lookup, key: A7K -0.003

What measured abundance fitness goes with L76K ? -0.861

Query: abundance fitness; subject: Q80W -0.307

Data request, read-out abundance fitness, for E8S -0.119

Need abundance fitness of R82N , thanks. 0.076

Requested field: abundance fitness. Item: I42P -0.819

What abundance fitness value was documented for this variant, L67Q ? -0.978

Any idea what abundance fitness was measured for L17S ? -0.635

Consider the variant shown here: G23I What is its recorded abundance fitness? -0.309

Give the measured abundance fitness of A7H . 0.01

So what's the measured abundance fitness for this one? L52H -1.02

Any idea what its abundance fitness is? The variant is L17N -0.696

Requested read-out: abundance fitness. Entry: I42M 0.004

I have this variant here, K51M , and I need its recorded abundance fitness. -0.011

// abundance fitness lookup, key: M4N -0.331

Please give the measured abundance fitness for this variant: M63L -0.423

Please give the measured abundance fitness for this variant: I73E -0.637

Look up abundance fitness: S68R -0.157

Looking for the measured abundance fitness of L52P , can you help? -0.97

Look up abundance fitness for this variant: I73R -0.56
